# Test system: H460 (human lung cancer)
# run description: MTT cytotoxicity assay, H460
# Assay type: cell-based
# applied conditions: Homo sapiens, NCI-H460; H460 cells, 50% cell growth inhibition after 72 h of drug exposure, MTT
Define the label as Condition met when IC50 is strictly less than 5 µM and as Condition not met in all remaining cases.

Task: Check if IC50 falls below 5 µM for C[C@@H]1CC[C@H]2[C@@H](C)C(OCCNC(=O)c3ccc(COc4ccc(/C=C/S(=O)(=O)Nc5ccc(F)c(C(F)(F)F)c5)cc4)cc3)O[C@@H]3O[C@@]4(C)CC[C@@H]1[C@]32OO4 (stereo partly drawn) .
Result: Condition not met

Task: Check if IC50 falls below 5 µM for C[C@@H]1CC[C@H]2[C@@H](C)C(OCCOc3ccc(/C=C/S(=O)(=O)Nc4ccc(OC(F)(F)F)cc4)cc3)O[C@@H]3O[C@@]4(C)CC[C@@H]1[C@]32OO4 (stereo partly drawn) .
Result: Condition met

Task: Check if IC50 falls below 5 µM for C[C@@H]1CC[C@H]2[C@@H](C)C(OCCOc3ccc(/C=C/S(=O)(=O)Nc4ccccc4)cc3)O[C@@H]3O[C@@]4(C)CC[C@@H]1[C@]32OO4 (stereo partly drawn) .
Result: Condition not met

Task: Check if IC50 falls below 5 µM for Cc1ccc(F)c(NS(=O)(=O)/C=C/c2ccc(OCCOC3O[C@@H]4O[C@@]5(C)CC[C@H]6[C@H](C)CC[C@@H]([C@H]3C)[C@@]46OO5)cc2)c1 (stereo partly drawn) .
Result: Condition met

Task: Check if IC50 falls below 5 µM for C[C@@H]1CC[C@H]2[C@@H](C)C(OCCNC(=O)c3ccc(COc4ccc(/C=C/S(=O)(=O)Nc5ccccc5)cc4)cc3)O[C@@H]3O[C@@]4(C)CC[C@@H]1[C@]32OO4 (stereo partly drawn) .
Result: Condition not met

Task: Check if IC50 falls below 5 µM for COc1cccc(NS(=O)(=O)/C=C/c2ccc(OCc3ccc(C(=O)NCCOC4O[C@@H]5O[C@@]6(C)CC[C@H]7[C@H](C)CC[C@@H]([C@H]4C)[C@@]57OO6)cc3)cc2)c1 (stereo partly drawn) .
Result: Condition not met

====

# Test system: MDA-MB-231 (human breast cancer)
# run description: MTT cytotoxicity assay, MDA-MB-231
# Assay type: cell-based
# applied conditions: Homo sapiens, MDA-MB-231 cells, 50% cell growth inhibition after 72 h of drug exposure
metric: IC50 (µM)
I only need the number, in µM, no unit after it.

IC50 reading for Cc1ccc(F)c(NS(=O)(=O)/C=C/c2ccc(OCc3ccc(C(=O)NCCOC4O[C@@H]5O[C@@]6(C)CC[C@H]7[C@H](C)CC[C@@H]([C@H]4C)[C@@]57OO6)cc3)cc2)c1 (some centres unmarked) [Compound 6d] : 1.33

IC50 reading for C[C@@H]1CC[C@H]2[C@@H](C)C(OCCNC(=O)c3ccc(COc4ccc(/C=C/S(=O)(=O)Nc5ccccc5Cl)cc4)cc3)O[C@@H]3O[C@@]4(C)CC[C@@H]1[C@]32OO4 (some centres unmarked) [Compound 6g] : 0.72

IC50 reading for C[C@@H]1CC[C@H]2[C@@H](C)C(OCCOc3ccc(/C=C/S(=O)(=O)Nc4cccc(Cl)c4)cc3)O[C@@H]3O[C@@]4(C)CC[C@@H]1[C@]32OO4 (some centres unmarked) [Compound 3b] : 1.61

IC50 reading for C[C@@H]1CC[C@H]2[C@@H](C)C(OCCNC(=O)c3ccc(COc4ccc(/C=C/S(=O)(=O)Nc5ccc(OC(F)(F)F)cc5)cc4)cc3)O[C@@H]3O[C@@]4(C)CC[C@@H]1[C@]32OO4 (some centres unmarked) [Compound 6c] : 0.49

IC50 reading for C[C@@H]1CC[C@H]2[C@@H](C)C(OCCNC(=O)c3ccc(COc4ccc(/C=C/S(=O)(=O)Nc5ccccc5)cc4)cc3)O[C@@H]3O[C@@]4(C)CC[C@@H]1[C@]32OO4 (some centres unmarked) [Compound 6a] : 2.26

The values you see were collected from paper PMC6270595.
